# test-description: Lipophilicity, log P of the compound
# Assay type: physicochemical
# condition-notes: octanol/water

| compound | logP |
| --- | --- |
| CCCc1ccccc1 | 3.7 |

###

# test-description: Octanol/water partition co-efficient, log P of compound by UV-spectrophotometry-based shake-flask method
# Format: physicochemical
value-kind: logP

| compound | value-kind | val |
| --- | --- | --- |
| COc1ccc(C)cc1 | logP | 2.67 |
| [O-][S+](CCc1ccccc1)C(F)F (stereo not given) | logP | 1.42 |
| CS(=O)(=O)CCc1ccccc1 | logP | 0.82 |
| CS(=O)(=O)c1ccc([N+](=O)[O-])cc1 | logP | 0.61 |
| FC(F)CCc1ccccc1 | logP | 3.02 |
| Cc1ccc(C)cc1 | logP | 3.08 |
| O=[N+]([O-])c1ccc([S+]([O-])C(F)F)cc1 (stereo not given) | logP | 1.37 |
| O=S(=O)(CCc1ccccc1)C(F)F | logP | 1.87 |
| O=C1c2ccccc2C(=O)N1C(F)F | logP | 1.53 |
| Cc1ccc([N+](=O)[O-])cc1 | logP | 2.35 |
| C[S+]([O-])CCc1ccccc1 (stereo not given) | logP | 0.63 |
| Cc1ccc(Br)cc1 | logP | 2.91 |
| COC(=O)c1ccccc1 [METHYL BENZOATE] | logP | 2.27 |
| COCCc1ccccc1 | logP | 2.23 |
| Cc1ccc(C(F)F)cc1 | logP | 2.94 |
